In what follows, each item is paired with its IC50 for RORc (Homo sapiens, UniProt P51449).
reportedEndpoint: IC50 (µM)

As a guide, the following entries are already answered.
- compound: "C[C@H]1CC[C@H](c2ccccc2)S(=O)(=O)N1Cc1ccc([C@]2(C#N)CC[C@@H](NC=O)CC2)cc1 [Example 19]"
  unitAbbrev: "µM"
  IC50: 0.31
- compound: "COC(=O)C1(c2ccc(CN3C(C)CCC(c4ccccc4)S3(=O)=O)c(F)c2)CCC(n2cnnc2)CC1 (stereo not drawn) [Compound 46]"
  unitAbbrev: "µM"
  IC50: 0.054
- compound: "COCC1(c2ccc(CN3[C@@H](C)CC[C@H](c4ccccc4)S3(=O)=O)c(F)c2)CCOCC1 [Compound 90]"
  unitAbbrev: "µM"
  IC50: 0.067
- compound: "CCNC(=O)C1(c2ccc(CN3[C@@H](C)CC[C@H](c4ccccc4)S3(=O)=O)c(F)c2)CCOCC1 [Compound 51]"
  unitAbbrev: "µM"
  IC50: 0.147
- compound: "C[C@H]1CC[C@H](c2ccccc2)S(=O)(=O)N1Cc1ccc(C2(COCCO)CCOCC2)cc1F [Compound 83]"
  unitAbbrev: "µM"
  IC50: 0.046

1 = C[C@H]1CC[C@H](c2ccccc2)S(=O)(=O)N1Cc1cc(F)c(C2(C#N)CC2)cc1F [Compound 123]
2 = C[C@H]1CC[C@H](c2ccccc2)S(=O)(=O)N1Cc1cc(F)c(C2(NCC(N)=O)COC2)cc1F [Compound 195]
// compare measured IC50 between 1 and 2 ; output the lower one Write the label of whichever entry you select.
1

a = CNC(=O)CCC1(c2cc(F)c(CN3[C@@H](C)CC[C@H](c4ccccc4)S3(=O)=O)cc2F)CC1 [Compound 146]
b = C[C@H]1CC[C@H](c2ccccc2)S(=O)(=O)N1Cc1ccc(C2(C(=O)NCCC#N)CCOCC2)cc1F [Compound 65]
// compare measured IC50 between a and b ; output the lower one Write the label of whichever entry you select.
a

P = C[C@H]1CC[C@H](c2ccccc2)S(=O)(=O)N1Cc1ccc(C2(CCCO)CCOCC2)cc1F [Compound 81]
Q = CC(=O)N1CCC(OCC(=O)O)(c2cc(F)c(CN3[C@@H](C)CC[C@H](c4ccccc4)S3(=O)=O)cc2F)CC1 [Compound 137]
// compare measured IC50 between P and Q ; output the lower one Write the label of whichever entry you select.
P

a = C[C@H]1CC[C@H](c2ccccc2)S(=O)(=O)N1Cc1cc(F)c(C2(OCC(=O)O)CCOCC2)cc1F [Compound 145]
b = C[C@H]1CC[C@H](c2ccccc2)S(=O)(=O)N1Cc1ccc([C@]2(CO)CC[C@H](n3cnnc3)CC2)cc1 [Example 14]
Exercise: compare a and b ; which one has the greater IC50? Write the label of whichever entry you select.
b

a = C[C@H]1CC[C@H](c2ccccc2)S(=O)(=O)N1Cc1ccc(OCC2(C)CCOCC2)cc1F [Example 2]
b = C[C@H]1CC[C@H](c2ccccc2)S(=O)(=O)N1Cc1ccc(C2(CCC(=O)N(C)C)CCOCC2)cc1F [Compound 85]
// compare measured IC50 between a and b ; output the lower one Write the label of whichever entry you select.
b
(b: 0.0105 µM, a: 0.067 µM)

---

- subjectOfTest: RORc (Homo sapiens, UniProt P51449)
- Sequence (P51449 269-508 limits assumed): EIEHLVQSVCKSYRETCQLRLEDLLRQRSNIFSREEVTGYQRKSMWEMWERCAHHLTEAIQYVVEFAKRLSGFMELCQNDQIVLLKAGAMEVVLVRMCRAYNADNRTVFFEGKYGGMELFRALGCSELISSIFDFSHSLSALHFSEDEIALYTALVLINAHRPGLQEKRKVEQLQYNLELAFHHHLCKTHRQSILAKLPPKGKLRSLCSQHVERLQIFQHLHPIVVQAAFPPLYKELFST
reportedEndpoint: IC50 (nM)

As a guide, the following entries are already answered.
- substanceSmiles: "C[C@H]1CC[C@H](c2ccccc2)S(=O)(=O)N1Cc1ccc(C2(NC(=O)OC(C)(C)C)CC2)cc1F"
  IC50 [nM]: 227
- substanceSmiles: "C[C@H]1CC[C@H](c2ccccc2)S(=O)(=O)N1Cc1ccc(C2(O)CCC3(CC2)OCCO3)cc1F"
  IC50 [nM]: 180

P = C[C@H]1CC[C@H](c2ccccc2)S(=O)(=O)N1Cc1ccc(C2(O)CCS(=O)(=O)CC2)cc1F
Q = C[C@H]1CC[C@H](c2ccccc2)S(=O)(=O)N1Cc1ccc(C2(C#N)CC2)cc1F
Exercise: compare P and Q ; which one has the greater IC50? Write the label of whichever entry you select.
P
(P: 190 nM, Q: 116 nM)

Values from patent US10131644B2
